- assayedTarget: human URAT1 (Homo sapiens)
- Construct: The full-length hURAT1 cDNA was obtained from the vector pCMV6-XL5 and subcloned into the expression vector pCMV6-Neo
- Sequence (Q96S37 whole entry): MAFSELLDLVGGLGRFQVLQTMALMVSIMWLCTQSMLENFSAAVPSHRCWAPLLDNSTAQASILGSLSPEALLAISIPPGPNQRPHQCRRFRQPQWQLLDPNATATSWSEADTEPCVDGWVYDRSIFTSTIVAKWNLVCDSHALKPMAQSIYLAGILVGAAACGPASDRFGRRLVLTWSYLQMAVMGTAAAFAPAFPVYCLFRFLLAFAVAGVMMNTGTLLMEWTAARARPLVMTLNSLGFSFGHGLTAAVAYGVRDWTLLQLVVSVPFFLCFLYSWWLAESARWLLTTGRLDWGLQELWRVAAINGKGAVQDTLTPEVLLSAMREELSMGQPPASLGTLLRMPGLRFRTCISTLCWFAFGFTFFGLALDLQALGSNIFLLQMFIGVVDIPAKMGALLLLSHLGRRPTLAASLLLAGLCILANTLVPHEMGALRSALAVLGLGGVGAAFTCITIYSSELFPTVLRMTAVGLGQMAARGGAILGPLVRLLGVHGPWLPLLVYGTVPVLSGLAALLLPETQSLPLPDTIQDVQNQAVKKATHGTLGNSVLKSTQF
- procedureDetails: URAT1 inhibition assay, [8-14C] urate uptake in hURAT1-HEK cells
- conditionContext: 50 μM [8-14C] urate
// boundary case: IC50 equal to 1000 nM maps to 0 (no); strictly smaller maps to 1 (yes)

Example results:
compound	category
CCC(C(=O)O)c1cccc(OCc2c(C)cccc2C)c1 (stereo not drawn)	1 (yes)
COc1cccc(OC)c1COc1cccc(CC(=O)O)c1	0 (no)
Cc1cccc(C)c1COc1cccc(C(=O)CC(C)(C)C(=O)O)c1	0 (no)
Cc1cccc(C)c1COc1cccc(C(=O)C(=O)O)c1	0 (no)
Cc1cccc(C)c1COc1cccc(C(C)C(=O)O)c1 (stereo not drawn)	1 (yes)
Cc1cccc(C)c1COc1cccc(CC(=O)O)c1	1 (yes)

Hi there! Is IC50 for Cc1cccc(C)c1COc1cccc(C2(C(=O)O)CC2)c1 below 1000 nM, do you know? 1 (yes)

Hi there! Is IC50 for Cc1cccc(C)c1COc1cccc(C(=O)CCC(=O)O)c1 below 1000 nM, do you know? 1 (yes)

Hi there! Is IC50 for Cc1cccc(C)c1COc1cccc(CCCCC(=O)O)c1 below 1000 nM, do you know? 0 (no)

Hi there! Is IC50 for COc1ccc(CC(=O)O)cc1OCc1c(C)cccc1C below 1000 nM, do you know? 1 (yes)

Hi there! Is IC50 for Cc1ccc(CC(=O)O)cc1OCc1c(C)cccc1C below 1000 nM, do you know? 1 (yes)
